For each entry below, report its activation at 1 µM value.
- tested-on: PKR T384W (Homo sapiens, UniProt P30613, T384W)
- Sequence (P30613 whole entry T384W): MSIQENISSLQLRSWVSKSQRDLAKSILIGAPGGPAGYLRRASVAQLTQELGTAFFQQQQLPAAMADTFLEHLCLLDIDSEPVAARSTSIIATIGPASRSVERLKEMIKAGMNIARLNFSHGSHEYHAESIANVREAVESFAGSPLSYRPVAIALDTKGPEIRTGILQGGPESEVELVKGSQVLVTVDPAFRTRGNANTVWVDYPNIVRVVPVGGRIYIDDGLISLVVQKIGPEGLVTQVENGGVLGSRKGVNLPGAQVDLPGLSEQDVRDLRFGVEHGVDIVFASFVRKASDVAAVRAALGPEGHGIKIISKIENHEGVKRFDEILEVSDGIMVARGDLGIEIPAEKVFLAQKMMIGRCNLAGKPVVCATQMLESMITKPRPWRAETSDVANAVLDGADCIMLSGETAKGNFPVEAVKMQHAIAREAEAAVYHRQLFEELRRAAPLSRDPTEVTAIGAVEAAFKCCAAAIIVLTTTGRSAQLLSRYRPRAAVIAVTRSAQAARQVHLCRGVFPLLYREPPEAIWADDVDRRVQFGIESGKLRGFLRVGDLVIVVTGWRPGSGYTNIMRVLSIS
- assay-name: PKR T384W Single Point Percent Activation Assay
- Assay type: biochemical
- measurement-conditions: read-out: Act. % 384W

Some solved cases for reference:
INSERT INTO assay_data (molecule, assay_metric, observed_measurement) VALUES
  ('C[C@@H]1CN(Cc2cc(F)cc(F)c2)CCN1C(=O)c1ccc(NS(=O)(=O)c2cccc3cccnc23)cc1', 'activation at 1 µM', '1 to 100%'),
  ('C[C@H]1CN(Cc2cc(F)c(F)cc2F)CCN1C(=O)c1ccc(NS(=O)(=O)c2cccc3cccnc23)cc1', 'activation at 1 µM', '101 to 500%'),
  ('O=C(c1ccc(NS(=O)(=O)c2cccc3cccnc23)cc1)N1C2CCC1CN(Cc1ccc(F)cc1)C2', 'activation at 1 µM', '101 to 500%'),
  ('C[C@H]1CN(C(=O)OCC2CC2)CCN1C(=O)c1ccc(NS(=O)(=O)c2cccc3cccnc23)cc1', 'activation at 1 µM', '101 to 500%'),
  ('C[C@H]1CN(CC2CCCCC2)CCN1C(=O)c1ccc(NS(=O)(=O)c2cccc3cccnc23)cc1', 'activation at 1 µM', '1 to 100%'),
  ('CC(C)OC(=O)N1[C@H](C)CN(C(=O)c2ccc(NS(=O)(=O)c3cccc4cccnc34)cc2)C[C@@H]1C', 'activation at 1 µM', '101 to 500%');

Field: activation at 1 µM. Fill in for each record below.
1. C[C@H]1CN(Cc2ccc(Cl)c(F)c2)CCN1C(=O)c1ccc(NS(=O)(=O)c2cccc3cccnc23)cc1
2. C[C@H]1CN(Cc2ccc(F)cc2)CCN1C(=O)c1ccc(NS(=O)(=O)c2cccc3cccnc23)cc1Cl
3. C[C@H]1CN(CC2CCCC2)CCN1C(=O)c1ccc(NS(=O)(=O)c2cccc3cccnc23)cc1Cl
4. C[C@H]1CN(CC2CC2)CCN1C(=O)c1ccc(NS(=O)(=O)c2cccc3cccnc23)cc1Cl
5. C[C@H]1CN(Cc2c(F)cc(F)cc2F)CCN1C(=O)c1ccc(NS(=O)(=O)c2cccc3cccnc23)cc1
6. O=C(c1ccc(NS(=O)(=O)c2cccc3cccnc23)cc1)N1CCN(Cc2ccc(F)cc2)C[C@@H]1c1ccccc1

1. 1 to 100%
2. 1 to 100%
3. 1 to 100%
4. 1 to 100%
5. 101 to 500%
6. 1 to 100%
